The measurements presented in this section are drawn from patent US20030068675.

target.desc: ZFP SBS#1010 (synthetic)
Sequence (chain, as listed by the source): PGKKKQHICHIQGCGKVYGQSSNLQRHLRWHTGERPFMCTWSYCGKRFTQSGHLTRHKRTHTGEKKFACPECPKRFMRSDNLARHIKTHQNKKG
run.description: EMSA
cond: tags: MBP fusion
measured.attribute: pKd
For clarity, pKd is expressed as the negative log10 of concentration in mol/L.

**Q:** Look up pKd for this binder: GAGAGAGAT (dsDNA) DNA 1: GAGAGAGAT DNA 2: ATCTCTCTC
**A:** 8.09
